- test-system: Bromodomain-containing protein 4 (Homo sapiens) (UniProt O60885)
- method-description: Binding affinity of recombinant His-tagged BRD4-BD2 (unknown origin) to histone H4Ac (1 to 21 residues) K5/8/12/Ac-Biotin-OH assessed as residual binding at 10 uM incubated for 30 mins by alphascreen analysis relative to control
Overview of recorded Activity for various molecules
metric: Activity (%)

compound | rel | numeric-value
COc1ccc(-n2c(C)nn(C)c2=O)cc1OC | = | 94.7
Cc1nn(C)c(=O)n1-c1ccc2c(c1)OCO2 | = | 99.3
CCn1nc(C)n(-c2ccc(F)c(Cl)c2)c1=O | > | 100
CCn1nc(C)n(-c2ccc3c(c2)OCO3)c1=O | = | 99.2
CCc1nn(C)c(=O)n1-c1ccc2c(c1)OCO2 | = | 88.6
CCc1nn(CC)c(=O)n1-c1cccc(C(F)(F)F)c1 | > | 100
CCc1nn(C)c(=O)n1-c1ccc(F)c(Cl)c1 | > | 100
CCc1nn(C)c(=O)n1-c1ccc(OC)c(OC)c1 | = | 89.4
CCn1nc(C)n(-c2ccc(OC)c(OC)c2)c1=O | > | 100
